# Tested on: MS2 coat protein
# assay_protocol: apparent KD of MS2 coat protein; designed switch direction (-1 OFF switch, 1 ON switch): -1; higher = weaker reporter binding
# condition_summary: Eterna round: R95; input ligand: none
metric_name: apparent KD of MS2 coat protein (nM)
Field: numeric (nM). Do not append units.

Example cases with answers are listed next.
[
  {
    "query_sequence": "UUAAGCUUUGAGAUCCUUAACAUGAGGAUCACCCAUGUUCGUCUUAUGAUGGUCUGAUCCCUGAGGAUCGGACCGUU [Mat - Sensor v3 - turn-off var 1 - JL Mod - D3] (puzzle: Sensor v3, turn-off variant 1)",
    "numeric_result": 303
  },
  {
    "query_sequence": "GAUUAUGCGAGCUUUAGGGACAUGAGGAUCACCCAUGUUCGUCUUAUUAGUCUGAAUACACUGACAUACCUAAAUCU [JMF 55] (puzzle: Sensor v3, turn-off variant 1)",
    "numeric_result": 17.8
  },
  {
    "query_sequence": "UAAAAGGUAGGAUAUACGAAAAAAAAGGGUAGAAAAAAAACACAUGAGGAUCACCCAUGUAGAAGGACCAAAAU [salish99_ex2_r3_041] (puzzle: Exclusion 2)",
    "numeric_result": 26.9
  },
  {
    "query_sequence": "CGUGUCUUUCACGUGAGUGGUGGGUGCAACAGGUGGGAAACAUGAGGAUCACCCAUGUCCUCACUUGCUCGUCUUUU [Grok-var2-03] (puzzle: Sensor v3, turn-off variant 2)",
    "numeric_result": 26.1
  },
  {
    "query_sequence": "AAAUUAAGUGUGAGGAUAUGCUGGUCCAUAGAUCAGCAGAAGGCACAUGAGGAUCACCCAUGUAAUAUAUUUAA [Mat - Exclusion 4 - JL Mod - D51] (puzzle: Brourd's mod of Exclusion 4)",
    "numeric_result": 23
  },
  {
    "query_sequence": "AAAAAACAAGGAUAUACGAAGGAGGGUUGUCUUAAUUUUUGACAUGAGGAUCACCCAUGUAGAAGGUGUUAAAA [JR_Exclusion2_Sub012] (puzzle: Exclusion 2)",
    "numeric_result": 188
  }
]

Reported apparent KD of MS2 coat protein, sequence GUUAGACAUGAGGAUCACCCAUGUGAGGAUAUGAUGCGAAUAAUGAAUGAAGAAAGCAUCAGAAGGCACAUAUG [Mat - Mod of Hyphema D29] (puzzle: Exclusion 1) : ____ 221

For CCUCAACAGUAGGAUAUCAUCAAACUAUUGUGAUGAGAAGGACUGACAUGAGGAUCACCCAUGUUAACGUGAUG [Exclusion 6 - 6:c] (puzzle: Exclusion 6) , what is its reported apparent KD of MS2 coat protein? 20.4

Entry under review: ACUAGCUUUUUGCAUAUUAGGUUUGUUGCUUCGUAUGUAACAUGAGGAUCACCCAUGUAUUACUGAUGUCGUCGUUU [JR_SV3TOV2_Sub091] (puzzle: Sensor v3, turn-off variant 2) . Reported apparent KD of MS2 coat protein? 16.9

Could you share which apparent KD of MS2 coat protein value was measured for UAUUAGCAAGCCAGAUCCCACAUGAGGAUCACCCAUGUGCUCGUCUUAUAAGGUACUGUGACGAAAGUCACGGUACC [Sensor 3, v1 - 93] (puzzle: Sensor v3, turn-off variant 1) ? 184

// returns reported apparent KD of MS2 coat protein for input UUUAUAAUUUCAAUCUUCGCUGGCGAACUUACGCCAGCCACAUGAGGAUCACCCAUGUUUUUUGUUCGUUUUAUUCU [Gelaoren] (puzzle: Sensor v3, turn-off variant 2) 21.1
